system: LOX IMVI melanoma; test: NCI tumour cell line growth inhibition, 48 h; in the data active = GI50 below about 0.43 µM; inactive = the rest
Outcomes: active, inactive

[[record]]
molecule = "O=[N+]([O-])c1ccc(C(Cl)C(Cl)c2ccc(C(Cl)C(Cl)c3ccc([N+](=O)[O-])cc3[N+](=O)[O-])cc2)c([N+](=O)[O-])c1 (stereo unspecified)"
assignedlabel = "active"

[[record]]
molecule = "COc1cc(-c2nc3sc(C)cn3c2/C=C2\\C(=O)Nc3ccccc32)c(Br)c(OC)c1OC"
assignedlabel = "inactive"

[[record]]
molecule = "O=c1cnnc(N/N=C/c2ccccc2O)[nH]1"
assignedlabel = "inactive"

[[record]]
molecule = "O=C(O)c1cc(=O)cc(C(=O)O)o1"
assignedlabel = "inactive"

[[record]]
molecule = "Cn1cc(-c2nc(-c3c[nH]c4ncccc34)cs2)c2ccccc21"
assignedlabel = "inactive"

[[record]]
molecule = "CC(C)(C)c1cc(/C=N/NC(=O)c2ccccc2NC(=O)c2cccs2)c(O)c(C(C)(C)C)c1"
assignedlabel = "inactive"

